molecular target: E. coli alkaline phosphatase (APase) (Escherichia coli); assay: E. coli APase inactivation by EDTA (comparison enzyme); assay type: biochemical; conditions: read-out: EDTA concentration giving 50% inactivation of E. coli APase
Sequence (P00634 22-471): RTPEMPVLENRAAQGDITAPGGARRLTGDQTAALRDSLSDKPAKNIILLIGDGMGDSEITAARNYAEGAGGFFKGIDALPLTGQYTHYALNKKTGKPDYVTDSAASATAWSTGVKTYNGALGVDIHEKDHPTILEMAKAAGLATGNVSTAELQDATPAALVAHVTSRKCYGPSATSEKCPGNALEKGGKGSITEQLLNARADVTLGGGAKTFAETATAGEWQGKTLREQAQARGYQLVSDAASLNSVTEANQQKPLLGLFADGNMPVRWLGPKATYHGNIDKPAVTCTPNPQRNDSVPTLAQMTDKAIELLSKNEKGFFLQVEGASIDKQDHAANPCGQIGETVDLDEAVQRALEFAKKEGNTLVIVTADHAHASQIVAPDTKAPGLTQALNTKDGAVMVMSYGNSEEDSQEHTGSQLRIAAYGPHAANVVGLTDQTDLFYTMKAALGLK
measured-metric: IC50 (mM)
# number only, unit mM dropped from output

Given O=C(O)CN(CCN(CC(=O)O)CC(=O)O)CC(=O)O , report its IC50 on E. coli alkaline phosphatase (APase) (Escherichia coli).
10

All figures here come from patent US4720458A.
